Biological target: human DP1 receptors (Homo sapiens, UniProt Q13258)
Construct: expressed in transfected cells
Sequence (Q13258 1-359): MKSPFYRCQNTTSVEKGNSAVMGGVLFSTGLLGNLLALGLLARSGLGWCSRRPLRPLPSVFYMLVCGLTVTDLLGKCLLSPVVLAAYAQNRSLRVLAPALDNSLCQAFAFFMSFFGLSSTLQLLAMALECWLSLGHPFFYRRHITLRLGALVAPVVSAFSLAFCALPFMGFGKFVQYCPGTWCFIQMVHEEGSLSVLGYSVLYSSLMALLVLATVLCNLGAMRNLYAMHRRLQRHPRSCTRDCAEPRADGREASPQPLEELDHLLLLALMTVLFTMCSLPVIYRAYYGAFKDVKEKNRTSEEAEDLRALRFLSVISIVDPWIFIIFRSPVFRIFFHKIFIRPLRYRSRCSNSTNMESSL
Assay: cell-based cAMP TR-FRET assay, DP1 (agonist BW245C)
Conditions: Table 2
Consider the following compounds; for each one, report its Selective Index (DP1/EP2).
Enter a number only.

I'd like to know its Selective Index (DP1/EP2). The compound in question is Cc1cc2ccccc2n1CCNC(=O)c1ccc2c(c1)n(C)c(=O)n2C [Compound 8a]
300

I'd like to know its Selective Index (DP1/EP2). The compound in question is Cc1cc2ccccc2n1CCNC(=O)c1ccc(N2CCOCC2)c(F)c1 [Compound 7t]
85

I'd like to know its Selective Index (DP1/EP2). The compound in question is CCN(CC)c1ccc(C(=O)NCCc2c(C)[nH]c3ccccc23)cc1 [Compound 9a]
1374

I'd like to know its Selective Index (DP1/EP2). The compound in question is Cc1cc2ccccc2n1CCNC(=O)c1ccc(N2CCN(C)CC2)c(F)c1 [Compound 7u]
22

I'd like to know its Selective Index (DP1/EP2). The compound in question is CCCN(CCC)c1ccc(C(=O)NCCn2c(C)cc3ccccc32)cc1 [Compound 6g]
298

I'd like to know its Selective Index (DP1/EP2). The compound in question is Cc1cc2ccccc2n1CCNC(=O)c1ccc(N2CCCCCC2)cc1 [Compound 7o]
342

I'd like to know its Selective Index (DP1/EP2). The compound in question is Cc1cc2ccccc2n1CCNC(=O)c1ccc(N2CCOCC2)cc1 [Compound 7p]
533

I'd like to know its Selective Index (DP1/EP2). The compound in question is Cc1cc2ccccc2n1CCNC(=O)c1ccc(N2CCCCC2)cc1 [Compound 7k]
273

I'd like to know its Selective Index (DP1/EP2). The compound in question is Cc1cc2ccccc2n1CCNC(=O)c1ccc(N2CCC(O)CC2)cc1 [Compound 7w]
172
